Where do the numbers come from? From the OligoGym collection.

# tgt: SEC11C
# experiment_notes: pooled miR-30 sensor sort-seq; sequence = guide strand; further: reference of the scale not given here
# measurement_conditions: shRNA
Values of sensor-assay potency score (higher = more potent) greater than or equal to -0.6 map to yes (1); values below map to no (0).

Is the recorded value of sensor-assay potency score (higher = more potent) equal to or greater than -0.6 for this sequence? TGAACTATTGGAATGTCTCGTC
yes (1)

----------
# tgt: IFT52
# experiment_notes: pooled miR-30 sensor sort-seq; sequence = guide strand
# measurement_conditions: shRNA
Values of sensor-assay potency score (higher = more potent) greater than or equal to -0.5 map to true; values below map to false.

// known answers, use as guide
{"polymer_sequence": "TTCATGTTTCACATTTAGCTGC", "category": "true"}
{"polymer_sequence": "TATTCTTCTAGTAAAAAGTTAA", "category": "false"}
{"polymer_sequence": "TAATCCACAGTTTTACTCCATT", "category": "false"}
{"polymer_sequence": "TTTCACATTTAGCTGCTCGTGA", "category": "true"}
{"polymer_sequence": "TGAATCTTCCAATTACTCCGAA", "category": "true"}

Is the recorded value of sensor-assay potency score (higher = more potent) equal to or greater than -0.5 for this sequence? TGAACATGTGACATGAACCAAG
false

Is the recorded value of sensor-assay potency score (higher = more potent) equal to or greater than -0.5 for this sequence? TTCTTCAGTACACTTATTGGTA
true
